meta.source: patent US20150004189A1

Target: HLA-DQ molecule DQB1*0602 (human)
Assay: competition: inhibition of radiolabeled peptide binding to purified HLA
experimental-endpoint: IC50 (nM)
Reply with just the number (in nM).

Could you please provide reported IC50 for AQGKAFYEAVAKAHQ [Alt a 7 peptide, position 190, Peptide ID 3324.0080] ? Thanks! 2360

Give reported IC50 value for GGRLAFQEFMIVPCE [Alt a 6 peptide, position 161, Peptide ID 3324.0073] 1290

Entry INELIASGSEKLASV [Alt a 5 peptide, position 51, Peptide ID 3324.0065] needs its IC50 filled in; supply it. 302
